- System: PI(3)P liposomes
- assay.explanation: Yeast proteome chip probed with PI(3)P liposomes
- assay.setup: liposome binding signal on yeast proteome chip, Cy3-streptavidin detection
Please go through the items and note down their PI(3)P.
Numbers only.

Recorded results for 3 molecules are shown here.
* MAG1: yeast GST-HisX6 fusion protein on proteome chip (protein, UniProt P22134 1-296, looked up, GST-His6 tag, yeast GST-HisX6 fusion protein on proteome chip) DNA-3-methyladenine …: MKLKREYDELIKADAVKEIAKELGSRPLEVALPEKYIARHEEKFNMACEHILEKDPSLFPILKNNEFTLYLKETQVPNTLEDYFIRLASTILSQQISGQAAESIKARVVSLYGGAFPDYKILFEDFKDPAKCAEIAKCGLSKRKMIYLESLAVYFTEKYKDIEKLFGQKDNDEEVIESLVTNVKGIGPWSAKMFLISGLKRMDVFAPEDLGIARGFSKYLSDKPELEKELMRERKVVKKSKIKHKKYNWKIYDDDIMEKCSETFSPYRSVFMFILWRLASTNTDAMMKAEENFVKS | 6.50
* OPY1: yeast GST-HisX6 fusion protein on proteome chip (protein, UniProt P38271 1-328, looked up, GST-His6 fusion tag, yeast GST-HisX6 fusion protein on proteome chip) Pleckstrin homology domain …: MIAGATAPSSQHEILIASNLIKKPSTSQNKTPTAQSSSGNNGAADGAPQGYHHHHHHHRHLWWPRTTDHQYWCVLRKNQFAYYKTRDEREAISVIPRFDILNFKISELDGILTVYTPSKDLIFKFPRGQNEKVGMELMHNWKIALEKFLSSPSGNESVTTGSDYDEEEDDDDLIVVDEKAGPSSSKHSCSLTMDEQLSREDKEFYRMFDPRNAEHQVCSGILYTKVKKKKLFNRAKWQKFNVELTNTSFNLYSFKTGKLKKSIKLDKIIDCIELDNNSKMKNDDTNFALITFDERLSFKAANDQDMVDWIINFKSGILIRKKLKAENI | 17.50
* ARP10: yeast GST-HisX6 fusion protein on proteome chip (protein, UniProt Q04549 1-284, looked up, GST-HisX6 tag, yeast GST-HisX6 fusion protein on proteome chip) Actin-like protein ARP10: MSNTIVIVYLGANRIEIGRSADACPQEIIAWKTGSINEKNREELKKIFEHYFQICNILGNREVQVLILEDIFISVVEKRIICSILFKEFDCAHVSFVPRAIVHCLSCNTRNAIVIDIGTNYTTCVPIFDLRPLQQFIKYSKRGKRQVESRIPLPGSLYMPIFFDEEYNSKNCEVDETPVINLVKNIVESLPIDLRRPLRENIIIVNIEEAYETVIRNLFKLKMDTSKIQFPKNYWQAGSACAKILLHYKGSNIVGIERDEFYNNPHIAPDWFDYYFRTGVKRLQ | 51.00

Next molecule, PI(3)P to be filled in.
Can you share its PI(3)P? I mean this molecule: BUD32: yeast GST-HisX6 fusion protein on proteome chip (protein, UniProt P53323 1-261, looked up, GST-His6 fusion tag, yeast GST-HisX6 fusion protein on proteome chip) EKC/KEOPS complex subunit …: MTQEFIDKVSSYLTPDVDIAPISQGAEAIVFTTTTHPYLPRAKDSHQKYIIKYRPPKRYRHPQIDQALTKHRTLNESRLLAKLYLIPGLCVPQLIACDPYNGFIWLEFLGEDLPGGHGFSNLKNFLWMHDQDPYSDLVATTLRKVGRQIGLLHWNDYCHGDLTSSNIVLVRDGARWTPHLIDFGLGSVSNLVEDKGVDLYVLERAILSTHSKHAEKYNAWIMEGFEEVYREQGAKGAKKLKEVTKRFEEVRLRGRKRSMLG
318.00
